Test Conditions: in methanol, 318.15 K
Observation Type: solubility (mole fraction)
Answers are plain numbers.

Entry under test: Nc1nnc[nH]1 . Its solubility (mole fraction) was 0.0794

---

Test Conditions: in n-propanol, 290.65 K
Observation Type: solubility (mole fraction)

Entry under test: Nc1nnc[nH]1 . Its solubility (mole fraction) was 0.00983

---

Test Conditions: in acetonitrile, 298.15 K
Observation Type: solubility (mole fraction)

Entry under test: Nc1nnc[nH]1 . Its solubility (mole fraction) was 0.00185

---

Test Conditions: in NMP, 303.15 K
Observation Type: solubility (mole fraction)
Answers are plain numbers.

Entry under test: Nc1nnc[nH]1 . Its solubility (mole fraction) was 0.206

---

Test Conditions: in acetone, 285.65 K
Observation Type: solubility (mole fraction)
One number for each entry.

Entry under test: Nc1nnc[nH]1 . Its solubility (mole fraction) was 0.00515

---

Test Conditions: in n-propanol, 283.15 K
Observation Type: solubility (mole fraction)
Answers are plain numbers.

Entry under test: Nc1nnc[nH]1 . Its solubility (mole fraction) was 0.0057

---

Test Conditions: in 2-butanone, 288.15 K
Observation Type: solubility (mole fraction)

Entry under test: Nc1nnc[nH]1 . Its solubility (mole fraction) was 0.00214

---

Test Conditions: in acetone, 295.65 K
Observation Type: solubility (mole fraction)

Entry under test: Nc1nnc[nH]1 . Its solubility (mole fraction) was 0.00727

---

Test Conditions: in ethyl acetate, 310.65 K
Observation Type: solubility (mole fraction)
Numbers only.

Entry under test: Nc1nnc[nH]1 . Its solubility (mole fraction) was 0.00458

---

Test Conditions: in acetone, 298.15 K
Observation Type: solubility (mole fraction)

Entry under test: Nc1nnc[nH]1 . Its solubility (mole fraction) was 0.00793

---

Test Conditions: in ethanol, 313.15 K
Observation Type: solubility (mole fraction)

Entry under test: Nc1nnc[nH]1 . Its solubility (mole fraction) was 0.0469

---

Test Conditions: in 2-butanone, 315.65 K
Observation Type: solubility (mole fraction)
Answers are plain numbers.

Entry under test: Nc1nnc[nH]1 . Its solubility (mole fraction) was 0.00768

---

Test Conditions: in acetonitrile, 308.15 K
Observation Type: solubility (mole fraction)
One number for each entry.

Entry under test: Nc1nnc[nH]1 . Its solubility (mole fraction) was 0.00384

---

Test Conditions: in isopropanol, 315.65 K
Observation Type: solubility (mole fraction)

Entry under test: Nc1nnc[nH]1 . Its solubility (mole fraction) was 0.0398

---

Test Conditions: in 1,4-dioxane, 300.65 K
Observation Type: solubility (mole fraction)

Entry under test: Nc1nnc[nH]1 . Its solubility (mole fraction) was 0.00569

---

Test Conditions: in acetonitrile, 313.15 K
Observation Type: solubility (mole fraction)
Numbers only.

Entry under test: Nc1nnc[nH]1 . Its solubility (mole fraction) was 0.00528

---

Test Conditions: in methanol, 310.65 K
Observation Type: solubility (mole fraction)
Give bare numbers.

Entry under test: Nc1nnc[nH]1 . Its solubility (mole fraction) was 0.0654

---

Test Conditions: in ethyl acetate, 295.65 K
Observation Type: solubility (mole fraction)
Answers are plain numbers.

Entry under test: Nc1nnc[nH]1 . Its solubility (mole fraction) was 0.00263

---

Test Conditions: in NMP, 283.15 K
Observation Type: solubility (mole fraction)
One number for each entry.

Entry under test: Nc1nnc[nH]1 . Its solubility (mole fraction) was 0.145

---

Test Conditions: in 2-butanone, 318.15 K
Observation Type: solubility (mole fraction)
One number for each entry.

Entry under test: Nc1nnc[nH]1 . Its solubility (mole fraction) was 0.00844

---

Test Conditions: in 2-butanone, 303.15 K
Observation Type: solubility (mole fraction)
Numbers only.

Entry under test: Nc1nnc[nH]1 . Its solubility (mole fraction) was 0.00438

---

Test Conditions: in ethyl acetate, 293.15 K
Observation Type: solubility (mole fraction)
Give bare numbers.

Entry under test: Nc1nnc[nH]1 . Its solubility (mole fraction) was 0.00237

---

Test Conditions: in 2-butanone, 305.65 K
Observation Type: solubility (mole fraction)

Entry under test: Nc1nnc[nH]1 . Its solubility (mole fraction) was 0.00497

---

Test Conditions: in 1,4-dioxane, 318.15 K
Observation Type: solubility (mole fraction)
One number for each entry.

Entry under test: Nc1nnc[nH]1 . Its solubility (mole fraction) was 0.0114

---

Test Conditions: in acetonitrile, 315.65 K
Observation Type: solubility (mole fraction)

Entry under test: Nc1nnc[nH]1 . Its solubility (mole fraction) was 0.00614

---

Test Conditions: in ethyl acetate, 318.15 K
Observation Type: solubility (mole fraction)
Answers are plain numbers.

Entry under test: Nc1nnc[nH]1 . Its solubility (mole fraction) was 0.00602

---

Test Conditions: in methanol, 290.65 K
Observation Type: solubility (mole fraction)

Entry under test: Nc1nnc[nH]1 . Its solubility (mole fraction) was 0.038

---

Test Conditions: in n-propanol, 303.15 K
Observation Type: solubility (mole fraction)
Give bare numbers.

Entry under test: Nc1nnc[nH]1 . Its solubility (mole fraction) was 0.022

---

Test Conditions: in acetonitrile, 283.15 K
Observation Type: solubility (mole fraction)
One number for each entry.

Entry under test: Nc1nnc[nH]1 . Its solubility (mole fraction) was 0.00061

---

Test Conditions: in acetonitrile, 303.15 K
Observation Type: solubility (mole fraction)
Answers are plain numbers.

Entry under test: Nc1nnc[nH]1 . Its solubility (mole fraction) was 0.00273

---

Test Conditions: in NMP, 315.65 K
Observation Type: solubility (mole fraction)
One number for each entry.

Entry under test: Nc1nnc[nH]1 . Its solubility (mole fraction) was 0.255

---

Test Conditions: in ethanol, 288.15 K
Observation Type: solubility (mole fraction)
Give bare numbers.

Entry under test: Nc1nnc[nH]1 . Its solubility (mole fraction) was 0.0143

---

Test Conditions: in n-propanol, 308.15 K
Observation Type: solubility (mole fraction)
Give bare numbers.

Entry under test: Nc1nnc[nH]1 . Its solubility (mole fraction) was 0.0293

---

Test Conditions: in NMP, 313.15 K
Observation Type: solubility (mole fraction)
Answers are plain numbers.

Entry under test: Nc1nnc[nH]1 . Its solubility (mole fraction) was 0.244

---

Test Conditions: in NMP, 295.65 K
Observation Type: solubility (mole fraction)
Numbers only.

Entry under test: Nc1nnc[nH]1 . Its solubility (mole fraction) was 0.181

---

Test Conditions: in ethyl acetate, 305.65 K
Observation Type: solubility (mole fraction)
Numbers only.

Entry under test: Nc1nnc[nH]1 . Its solubility (mole fraction) was 0.00383

---

Test Conditions: in NMP, 285.65 K
Observation Type: solubility (mole fraction)
One number for each entry.

Entry under test: Nc1nnc[nH]1 . Its solubility (mole fraction) was 0.152

---

Test Conditions: in 2-butanone, 308.15 K
Observation Type: solubility (mole fraction)
Answers are plain numbers.

Entry under test: Nc1nnc[nH]1 . Its solubility (mole fraction) was 0.0056

---

Test Conditions: in ethyl acetate, 283.15 K
Observation Type: solubility (mole fraction)
Numbers only.

Entry under test: Nc1nnc[nH]1 . Its solubility (mole fraction) was 0.00147

---

Test Conditions: in 1,4-dioxane, 313.15 K
Observation Type: solubility (mole fraction)
Answers are plain numbers.

Entry under test: Nc1nnc[nH]1 . Its solubility (mole fraction) was 0.00952

---

Test Conditions: in n-propanol, 288.15 K
Observation Type: solubility (mole fraction)
Numbers only.

Entry under test: Nc1nnc[nH]1 . Its solubility (mole fraction) was 0.00835

---

Test Conditions: in acetone, 310.65 K
Observation Type: solubility (mole fraction)
Give bare numbers.

Entry under test: Nc1nnc[nH]1 . Its solubility (mole fraction) was 0.0123

---

Test Conditions: in acetone, 308.15 K
Observation Type: solubility (mole fraction)
Give bare numbers.

Entry under test: Nc1nnc[nH]1 . Its solubility (mole fraction) was 0.0114

---

Test Conditions: in acetonitrile, 285.65 K
Observation Type: solubility (mole fraction)
Give bare numbers.

Entry under test: Nc1nnc[nH]1 . Its solubility (mole fraction) was 0.000713

---

Test Conditions: in ethanol, 303.15 K
Observation Type: solubility (mole fraction)
Give bare numbers.

Entry under test: Nc1nnc[nH]1 . Its solubility (mole fraction) was 0.0302

---

Test Conditions: in acetone, 315.65 K
Observation Type: solubility (mole fraction)
Give bare numbers.

Entry under test: Nc1nnc[nH]1 . Its solubility (mole fraction) was 0.0142

---

Test Conditions: in ethyl acetate, 298.15 K
Observation Type: solubility (mole fraction)
Numbers only.

Entry under test: Nc1nnc[nH]1 . Its solubility (mole fraction) was 0.00286

---

Test Conditions: in NMP, 300.65 K
Observation Type: solubility (mole fraction)
Give bare numbers.

Entry under test: Nc1nnc[nH]1 . Its solubility (mole fraction) was 0.198

---

Test Conditions: in ethanol, 293.15 K
Observation Type: solubility (mole fraction)
Numbers only.

Entry under test: Nc1nnc[nH]1 . Its solubility (mole fraction) was 0.0187

---

Test Conditions: in 1,4-dioxane, 298.15 K
Observation Type: solubility (mole fraction)

Entry under test: Nc1nnc[nH]1 . Its solubility (mole fraction) was 0.00506

Values from BigSolDB 2.1
